Tested on: Vero E6
ASSAY_NAME: cell viability relative to DMSO; higher = less toxic
CONDITION_CONTEXT: 72 h; 10 nM
OBSERVATION_TYPE: cell viability

INSERT INTO assay_data (smiles_record, observation_type, measured) VALUES
  ('O=C1Nc2ccc(Cl)cc2[C@@](C#CC2CC2)(C(F)(F)F)O1', 'cell viability', '93.5%'),
  ('O=C1NC(=O)/C(=C/c2ccc3nccc(-c4ccncc4)c3c2)S1', 'cell viability', '99.1%'),
  ('C[C@@H](N)Cc1c[nH]c2ccc(O)cc12', 'cell viability', '94.5%');

* * *

Tested on: Vero E6
ASSAY_NAME: cell viability relative to DMSO; higher = less toxic
CONDITION_CONTEXT: 72 h; 100 nM
Reported cell viability values for the following molecules.
OBSERVATION_TYPE: cell viability (%)

INSERT INTO assay_data (molecule, observation_type, measured) VALUES
  ('N#Cc1c(-c2ccccc2)cc(-c2cc(Br)ccc2O)[nH]c1=O', 'cell viability', 95.5),
  ('N=C(N)c1ccc(/C=C/c2ccc(C(=N)N)cc2O)cc1 [hydroxystilbamidine]', 'cell viability', 101),
  ('COc1ccccc1OC(=O)C(C)c1ccc(CC(C)C)cc1 (stereo not given) [metoxibutropate]', 'cell viability', 96.9),
  ('Oc1ccc(-c2nc3cc(O)cc(Br)c3o2)cc1', 'cell viability', 110),
  ('COc1ccc2c(c1OC)C(=O)O[C@@H]2[C@H]1c2c(cc3c(c2OC)OCO3)CCN1C', 'cell viability', 96.9),
  ('CC(=O)OCC1=C(C(=O)O)N2C(=O)[C@@H](NC(=O)CCCC(N)C(=O)O)C2SC1 (stereo not given in full)', 'cell viability', 90.9),
  ('Cc1sc(C)c(C(=O)NC2(c3ccc(C(=O)O)cc3)CC2)c1Cc1ccc(C(F)(F)F)cc1', 'cell viability', 96.5),
  ('Cc1sc2c(c1C)C(c1ccc(Cl)cc1)=N[C@@H](CC(N)=O)c1nnc(C)n1-2', 'cell viability', 73.7),
  ('NC(=S)N/N=C/c1ncccc1N', 'cell viability', 98.1),
  ('CCC[C@H](N[C@@H](C)C(=O)N1[C@H](C(=O)O)C[C@@H]2CCCC[C@@H]21)C(=O)O', 'cell viability', 100),
  ('C[C@H](CCC(=O)O)[C@H]1CC[C@H]2[C@@H]3[C@H](O)C[C@@H]4C[C@H](O)CC[C@]4(C)[C@H]3C[C@H](O)[C@]12C', 'cell viability', 100),
  ('Cc1ccc(C(=O)C(C)CN2CCCCC2)cc1 (stereo not given)', 'cell viability', 104),
  ('O=C1CCCCCCCCCCCCCCO1', 'cell viability', 102),
  ('C[N+]1(C)[C@@H]2CC[C@H]1C[C@@H](OC(=O)C(O)c1ccccc1)C2 (stereo not given in full) [homatropine-methylbromide]', 'cell viability', 106),
  ('CCOC(=O)C1=CCCC[C@H]1S(=O)(=O)Nc1ccc(F)cc1Cl', 'cell viability', 97.6),
  ('CCNCCCNCCCCNCCCNCC', 'cell viability', 99.4),
  ('CON(C)C(=O)[C@H](O)[C@H](Cc1ccccc1)NC(=O)c1cc2cc(Cl)ccc2[nH]1', 'cell viability', 103),
  ('N=C1CCCN1Cc1[nH]c(=O)[nH]c(=O)c1Cl', 'cell viability', 94.9),
  ('COC(=O)C1=C(C)NC(C)=C(C(=O)O[C@H]2CCN(Cc3ccccc3)C2)[C@H]1c1cccc([N+](=O)[O-])c1', 'cell viability', 105),
  ('Nc1cccc(-c2cc3c(Oc4cccc(O)c4)ncnc3[nH]2)c1', 'cell viability', 101);

* * *

Entries and their measured cell viability follow.
Test system: Caco-2
ASSAY_NAME: cell viability relative to DMSO; higher = less toxic
CONDITION_CONTEXT: 72 h; 10000 nM
OBSERVATION_TYPE: cell viability (%)

INSERT INTO measurements (smiles_record, tested_target, observation_type, measured) VALUES
  ('COC1=CC(=O)C[C@@H](C)[C@]12Oc1c(Cl)c(OC)cc(OC)c1C2=O', 'Caco-2', 'cell viability', 88.1),
  ('CO/N=C1/C[C@@H](C(=O)NC[C@@H](O)c2ccccc2)N(C(=O)c2ccc(-c3ccccc3C)cc2)C1', 'Caco-2', 'cell viability', 98.3),
  ('Cc1nccc2c1[nH]c1ccccc12', 'Caco-2', 'cell viability', 93),
  ('O=C1c2cccc(O)c2C(=O)c2c(O)cccc21', 'Caco-2', 'cell viability', 101),
  ('CO[C@H]1CC[C@@H](C(=O)c2ccc3nc4c(cc3c2)CCCO4)CC1', 'Caco-2', 'cell viability', 92.7),
  ('COc1ccc2c(c1OC)C(=O)O[C@@H]2[C@H]1c2c(cc3c(c2OC)OCO3)CCN1C', 'Caco-2', 'cell viability', 105),
  ('CCn1c(=O)n([C@H]2CCCN(c3nccc(-c4cc5ccccc5o4)n3)C2)c2ccccc21', 'Caco-2', 'cell viability', 84.9),
  ('Nc1ncnc2c1c(COc1cccc(Cl)c1)nn2C1CCOCC1', 'Caco-2', 'cell viability', 91.3),
  ('CNC(=N)NC(=O)Nc1c(C)cccc1C', 'Caco-2', 'cell viability', 92.5),
  ('CN1CCN(S(=O)(=O)c2ccc(-c3cnc(N)c(C(=O)Nc4cccnc4)n3)cc2)CC1', 'Caco-2', 'cell viability', 82.3),
  ('C(=C\c1ccccc1)/CN1CCN(CCOC(c2ccccc2)c2ccccc2)CC1', 'Caco-2', 'cell viability', 80.5),
  ('Fc1ccc(C(OCCN2CCN(CCCc3ccccc3)CC2)c2ccc(F)cc2)cc1', 'Caco-2', 'cell viability', 50.3),
  ('C[C@@H](N)Cc1c[nH]c2ccc(O)cc12', 'Caco-2', 'cell viability', 101),
  ('O=[N+]([O-])c1cc([N+](=O)[O-])c(/C=C/c2ccc(Cl)c(Cl)c2)cc1/C=C/c1ccc(Cl)c(Cl)c1', 'Caco-2', 'cell viability', 86.3),
  ('Cc1cc2nc3c(=O)[nH]c(=O)nc-3n(C)c2cc1C=O', 'Caco-2', 'cell viability', 40),
  ('Cc1cc2c(cc1C(F)(F)F)N(C(=O)Nc1ccc(Oc3cccnc3C)nc1)CC2', 'Caco-2', 'cell viability', 91.2);

* * *

System: Vero E6
ASSAY_NAME: cell viability relative to DMSO; higher = less toxic
CONDITION_CONTEXT: 72 h; 10 nM
Where a name gives a salt, the structure may show the parent alone.
The following compounds are shown together with reported cell viability values.
OBSERVATION_TYPE: cell viability (%)

INSERT INTO assay_data (compound, measured) VALUES
  ('CNC(=O)c1nn(C)c2c1C(C)(C)Cc1cnc(Nc3ccc(N4CCN(C)CC4)cc3)nc1-2', 96.1),
  ('CO/N=C(\C(=O)N[C@@H]1C(=O)N2C(C(=O)O)=C(Cn3ccc(=N)n3CCO)CS[C@H]12)c1csc(N)n1 [Cefoselis sulfate]', 102),
  ('O=C(NCCN1CCC2(CC1)C(=O)NCN2c1cccc(F)c1)c1ccc2ccccc2c1', 95.6),
  ('COc1cc(OC)c2c(=O)[nH]c(-c3cc(C)c(OCCO)c(C)c3)nc2c1 [apabetalone]', 98.4),
  ('Cc1noc2c1-c1ccccc1C(c1ccc(Cl)cc1)=N[C@H]2CC(N)=O [CPI-0610]', 108),
  ('CCC(CC)O[C@@H]1C=C(C(=O)O)C[C@H](N)[C@H]1NC(C)=O [oseltamivir-carboxylate]', 99.7),
  ('CON(C)C(=O)[C@H](O)[C@H](Cc1ccccc1)NC(=O)c1cc2cc(Cl)ccc2[nH]1', 101),
  ('CN(C)CCOc1ccc(-c2nc(-c3ccncc3)c(-c3ccc4c(c3)CC/C4=N\O)[nH]2)cc1', 98.5),
  ('C[C@]12CC[C@H]3[C@@H](CCC4=CC(=O)CC[C@@H]43)[C@@H]1CC[C@@H]2O [Nandrolone]', 104),
  ('CC(C)(C)[C@]1(O)CCN2C[C@H]3c4ccccc4CCc4cccc(c43)[C@@H]2C1 [butaclamol]', 103),
  ('Oc1ccc(O)cc1 [hydroquinone]', 100),
  ('O=C(O)c1cc(O)c(O)c(O)c1 [gallic-acid]', 92.4),
  ('Nc1ncnc2c1c(COc1cccc(Cl)c1)nn2C1CCOCC1', 96.5),
  ('O=C(/C=C/c1ccc2c(c1)OCO2)N1CCCCC1 [ilepcimide]', 98.1),
  ('C[C@@]12CCc3occc3[C@H]1CC[C@@]13C[C@@H](CC[C@H]12)[C@@](O)(CO)C3 [cafestol]', 97.7);

* * *

Tested on: Calu-3
ASSAY_NAME: drug sensitivity score (DSS) for viability; higher = more toxic; extreme values may be limits of the assay
CONDITION_CONTEXT: 72 h
Quick reference: drug sensitivity score of the listed items.
OBSERVATION_TYPE: drug sensitivity score

INSERT INTO assay_data (smiles_record, tested_target, measured) VALUES
  ('O=C(O)c1ccccc1', 'Calu-3', 0),
  ('C[C@]12CCC(=O)C=C1[C@@H]1C[C@@H]1[C@H]1[C@@H]3[C@@H]4C[C@@H]4[C@@]4(CCC(=O)O4)[C@@]3(C)CC[C@@H]12', 'Calu-3', 0),
  ('O=C(NC1(c2ccccc2)CC1)c1c(CN2CCC(N3CCCCC3)CC2)c(-c2cccc(C(F)(F)F)c2)nc2cc(Br)ccc12', 'Calu-3', 7.8),
  ('CC(=O)[C@]1(N)Cc2c(O)c3c(c(O)c2[C@@H](O[C@H]2C[C@H](O)[C@H](O)CO2)C1)C(=O)c1ccccc1C3=O', 'Calu-3', 0),
  ('CCOCc1nc2c(N)nc3ccccc3c2n1CC(C)(C)O', 'Calu-3', 0),
  ('COc1cc(N)c(Cl)cc1C(=O)OCCCN1CCCCC1', 'Calu-3', 0),
  ('CCC[C@H](N[C@@H](C)C(=O)N1[C@H](C(=O)O)C[C@@H]2CCCC[C@@H]21)C(=O)O', 'Calu-3', 0),
  ('CCCCCCC[N+](CC)(CC)CCCCc1ccc(Cl)cc1', 'Calu-3', 0),
  ('C[C@@]12CCc3occc3[C@H]1CC[C@@]13C[C@@H](CC[C@H]12)[C@@](O)(CO)C3', 'Calu-3', 0),
  ('COc1c(C)c2c(c(O)c1C/C=C(\C)CCC(=O)O)C(=O)OC2', 'Calu-3', 6);
